Reference for the values: ChEMBL document CHEMBL5226360

Test system: Periplaneta americana
Assay: Diuretic activity in Periplaneta americana assessed as hindgut contraction incubated for 5 mins by myotropic assay
Format: functional
Starred links: 1 amine or outer side, 2 acyl side, 3 side chain; linkers in the order of their positions; H or OH if unused. Non-standard residues stand in square brackets, D forms with d. Residues, ends and D or L forms follow the SMILES beside them. X1 = CC1(C)SC[C@@H](C(=O)[*:2])N1[*:1]; X2 = CC1(C)OC[C@@H](C(=O)[*:2])N1[*:1]; Thz = O=C(O)[C@@H]1CSCN1
property measured: EC50 (nM)
Lab book: enter the figure in nM, no units written.

[[record]]
compound = "CC1(C)OC[C@@H](C(=O)N[C@@H](Cc2c[nH]c3ccccc23)C(=O)NCC(N)=O)N1C(=O)[C@H](Cc1ccccc1)NC(=O)[C@@H](N)Cc1ccccc1 (H-FF[X2]WG-NH2)"
reported_value = 0.614

[[record]]
compound = "NC(=O)CNC(=O)[C@H](Cc1c[nH]c2ccccc12)NC(=O)[C@@H]1CSCN1C(=O)[C@H](Cc1ccccc1)NC(=O)[C@@H](N)Cc1ccccc1 (H-FF[Thz]WG-NH2)"
reported_value = 0.736

[[record]]
compound = "CC1(C)SC[C@@H](C(=O)N[C@@H](Cc2c[nH]c3ccccc23)C(=O)NCC(N)=O)N1C(=O)[C@H](Cc1ccccc1)NC(=O)[C@@H](N)Cc1ccccc1 (H-FF[X1]WG-NH2)"
reported_value = 0.708


Shifting focus to the compound that follows.
// recorded EC50 for NC(=O)CNC(=O)[C@H](Cc1c[nH]c2ccccc12)NC(=O)[C@@H]1CCCN1C(=O)[C@H](Cc1ccccc1)NC(=O)[C@@H](N)Cc1ccccc1 (H-FFPWG-NH2) : 0.794

----------
Target: Dipeptidyl peptidase 4 (Homo sapiens, UniProt P27487)
Sequence (P27487 whole entry): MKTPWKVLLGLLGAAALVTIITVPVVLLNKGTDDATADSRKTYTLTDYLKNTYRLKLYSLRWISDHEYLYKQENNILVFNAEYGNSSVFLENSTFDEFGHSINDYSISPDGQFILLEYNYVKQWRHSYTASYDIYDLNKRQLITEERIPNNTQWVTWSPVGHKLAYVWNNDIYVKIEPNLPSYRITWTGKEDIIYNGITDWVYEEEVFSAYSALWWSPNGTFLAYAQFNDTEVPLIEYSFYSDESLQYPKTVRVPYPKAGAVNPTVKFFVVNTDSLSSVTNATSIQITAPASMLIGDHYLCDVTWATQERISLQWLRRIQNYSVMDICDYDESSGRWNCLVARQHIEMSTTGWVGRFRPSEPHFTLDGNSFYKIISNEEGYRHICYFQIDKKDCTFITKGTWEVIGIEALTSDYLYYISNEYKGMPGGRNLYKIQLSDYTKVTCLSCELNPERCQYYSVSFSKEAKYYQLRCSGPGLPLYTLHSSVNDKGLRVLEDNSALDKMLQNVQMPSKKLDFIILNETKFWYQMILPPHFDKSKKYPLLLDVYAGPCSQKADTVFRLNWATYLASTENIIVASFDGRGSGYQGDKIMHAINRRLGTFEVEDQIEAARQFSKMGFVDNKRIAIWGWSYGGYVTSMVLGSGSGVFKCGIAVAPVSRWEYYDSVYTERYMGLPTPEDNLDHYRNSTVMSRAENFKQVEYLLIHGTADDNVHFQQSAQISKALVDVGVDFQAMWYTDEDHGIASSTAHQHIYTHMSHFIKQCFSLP
property measured: pIC50
Scale: negative log10 of molar concentration, which is what pIC50 denotes.

// recorded pIC50 for CC(C)[C@H](Nc1ccc(CNC(=O)[C@@H]2CSCN2C(=O)C[C@H](N)Cc2cc(F)ccc2F)cc1)C(=O)O : 9.52

----------
Assay: Half life in monkey at 3 mg/kg, po or iv
Format: ADME, organism-based, Macaca mulatta
Settings: rhesus monkey, in vivo
property measured: half-life

// recorded half-life for CC(C)[C@@H](Nc1ccc(CNC(=O)[C@@H]2SCCN2C(=O)C[C@H](N)Cc2cc(F)c(F)cc2F)cc1)C(=O)O : > 180 min

----------
Experiment: Tmax in rat at 10 mg/kg, ID
Type: ADME, organism-based
Settings: in vivo
property measured: Tmax (h)
Lab book: enter the figure in h, no units written.

// recorded Tmax for Cc1ccccc1CNC(=O)[C@H]1N(C(=O)[C@@H](O)[C@H](Cc2ccccc2)NC(=O)c2cccc(O)c2C)CSC1(C)C : 1

----------
Experiment: Bioavailability in rat under fasted condition at 10 mg/kg, ID
Format: ADME, organism-based
Details: in vivo
property measured: bioavailability (%)
Lab book: enter the figure in %, no units written.

// recorded bioavailability for Cc1ccccc1CNC(=O)[C@H]1N(C(=O)[C@@H](O)[C@H](Cc2ccccc2)NC(=O)c2cccc(O)c2C)CSC1(C)C : 33

----------
Assay: Volume of distribution at steady state in rat at 10 mg/kg, iv
Assay type: ADME, organism-based
Conditions: in vivo, read-out: Vdss
property measured: Vd
Write the quantity with the unit trailing the number.

// recorded Vd for CC(C)[C@@H](Nc1ccc(CNC(=O)[C@@H]2SCCN2C(=O)C[C@H](N)Cc2cc(F)c(F)cc2F)cc1)C(=O)O : 0.3 L/kg
